reported.property: melting point

N#Cc1c(-c2ccc(F)cc2)cc(-c2ccc(Cl)cc2Cl)nc1NN [Compound 17]	223 to 224 °C

Short answer for N#Cc1c(-c2ccc(F)cc2)cc(-c2ccc(Cl)cc2Cl)nc1N1CCOCC1 [Compound 15b] : melting point was 112 to 114 °C

Noted for N#Cc1c(-c2ccc(F)cc2)cc(-c2ccc(Cl)cc2Cl)nc1OCC(=O)NN [Compound 9] : its melting point reads 197 to 199 °C

Noted for Cc1cc(C)n(-c2nc(-c3ccc(Cl)cc3Cl)cc(-c3ccc(F)cc3)c2C#N)n1 [Compound 19] : its melting point reads 287 to 289 °C

---

- System: SF-268 (CNS cancer)
- test.summary: SRB cancer cell growth assay, SF-268
- Type: cell-based, human
- experimental.context: Homo sapiens; SF-268, 48 h exposure, SRB; read-out: IC50 (μg/mL) SF-268
reported.property: IC50 (µg/mL)

Solved cases below.
CCOC(=O)COc1nc(-c2ccc(Cl)cc2Cl)cc(-c2ccc(F)cc2)c1C#N [Compound 8]	0.02
N#Cc1c(-c2ccc(F)cc2)cc(-c2ccc(Cl)cc2Cl)nc1C(C#N)C#N [Compound 16]	0.01
N#Cc1c(N)c2c(-c3ccc(F)cc3)cc(-c3ccc(Cl)cc3Cl)nc2[nH]c1=O [Compound 7]	62.1

A: CC1=NN(c2nc(-c3ccc(Cl)cc3Cl)cc(-c3ccc(F)cc3)c2C#N)C(=O)C1 [Compound 18]
B: N#Cc1c(-c2ccc(F)cc2)cc(-c2ccc(Cl)cc2Cl)nc1NN=C1C(=O)Nc2ccccc21 [Compound 20]
C: N#Cc1c(-c2ccc(F)cc2)cc(-c2ccc(Cl)cc2Cl)nc1OCC(=O)NN [Compound 9]
D: Cc1cc(C)n(-c2nc(-c3ccc(Cl)cc3Cl)cc(-c3ccc(F)cc3)c2C#N)n1 [Compound 19]
Arrange the 4 compounds by rising IC50, starting with the smallest. Write the labels in rank order as requested.
C, B, D, A
(C: 0.46 µg/mL, B: 2.34 µg/mL, D: 10.4 µg/mL, A: 20.2 µg/mL)

A: N#Cc1c(-c2ccc(F)cc2)cc(-c2ccc(Cl)cc2Cl)nc1OCC(=O)NN=Cc1ccc(F)cc1 [Compound 10]
B: Nc1nnc2[nH]c(-c3ccc(Cl)cc3Cl)cc(-c3ccc(F)cc3)c1-2 [Compound 4]
Return label of the item with the larger IC50. Candidates: A , B . Lab note: record the label of whichever item you select.
B
(B: 69 µg/mL, A: 28.2 µg/mL)

a: N#Cc1c(-c2ccc(F)cc2)cc(-c2ccc(Cl)cc2Cl)nc1NCc1ccc2c(c1)OCO2 [Compound 13]
b: N#Cc1c(-c2ccc(F)cc2)cc(-c2ccc(Cl)cc2Cl)nc1NN [Compound 17]
Problem: Given the entries a and b , determine which has the lower reported IC50. Returns: label corresponding to the selected item.
b

---

- Test system: MCF-7 (breast adenocarcinoma)
- test.summary: SRB cancer cell growth assay, MCF-7
- Type: cell-based, human
- experimental.context: Homo sapiens, MCF7; MCF-7, 48 h exposure, SRB; read-out: IC50 (μg/mL) MCF-7
reported.property: IC50 (µg/mL)

N#Cc1c(-c2ccc(F)cc2)cc(-c2ccc(Cl)cc2Cl)nc1C(C#N)C#N [Compound 16]	0.01
N#Cc1c(-c2ccc(F)cc2)cc(-c2ccc(Cl)cc2Cl)nc1OCC(=O)NN [Compound 9]	2.41
Cc1cc(C)n(-c2nc(-c3ccc(Cl)cc3Cl)cc(-c3ccc(F)cc3)c2C#N)n1 [Compound 19]	75.2

P: COc1cccc2c1C(=O)c1c(O)c3c(c(O)c1C2=O)C[C@@](O)(C(=O)CO)C[C@@H]3O[C@H]1C[C@H](N)[C@H](O)[C@H](C)O1 [Doxorubicin, reference compound]
Q: N#Cc1c(-c2ccc(F)cc2)cc(-c2ccc(Cl)cc2Cl)nc1OCC(=O)NN=Cc1ccc(F)cc1 [Compound 10]
R: CC1=NN(c2nc(-c3ccc(Cl)cc3Cl)cc(-c3ccc(F)cc3)c2C#N)C(=O)C1 [Compound 18]
// ranking: key=IC50, reverse=True Please express your ranking as an ordered list of the labels.
Q, R, P
